- target: CDK2/Cyclin E1 (Homo sapiens)
- Construct: purchased 14-475
- method_notes: ADPGLO (CDK2/E1-37 C), ADP-Glo Luminescent Kinase Assay
- Type: biochemical
- condition_info: 0.18 nM CDK2/Cyclin E1, 100 μM ATP, Histone H1, 37° C.
- Method: Inhibition of CDK2/Cyclin E1 activity by the presence of small molecules was evaluated using ADP-Glo Luminescent Kinase Assay (Promega). […] Luminescence was recorded with an Envision plate reader (PerkinElmer). Dose titrations of inhibitors in 100% DMSO were combined with 0.36 nM CDK2/Cyclin E1 in reaction buffer. […] This mixture was incubated at room temperature for 60 minutes before Kinase Detection Solution is added to generate luminescence. […]
pIC50: −log10 of the molar value.
observable: pIC50

{"columns": ["compound", "result"],
 "data": [
  ["CC(c1nc(C2CN(C(=O)c3cnn(Cc4ccccc4C(=O)O)c3)CC23CN(C(=O)C2(C(F)(F)F)CC2)C3)no1)n1ccc(C2(C(F)(F)F)CC2)n1 (stereo not shown)", "5.30 to 6.30"],
  ["C=CC(=O)N(C)c1cccc(Cc2ccc(Cn3cc(C(=O)N4CC(c5nnc(C(F)(F)c6ccc(Cl)c(Cl)c6)o5)C5(C4)CN(C(=O)C4(C(F)(F)F)CC4)C5)cn3)cc2)c1 (stereo not shown)", "< 5.00"],
  ["CC(c1nc(C2CN(C(=O)c3cnn(Cc4ccc(C(=O)O)cc4)c3)CC23CN(C(=O)[C@H]2CC2(C)C)C3)no1)n1ccc(C2CCCC2)n1 (stereo partly shown)", "5.00 to 5.30"],
  ["CC(c1nc(C2CN(C(=O)c3cnn(Cc4ccc(C#N)cc4)c3)CC23CN(C(=O)C2(C(F)(F)F)CC2)C3)no1)n1ccc(C(F)(F)F)n1 (stereo not shown)", "< 5.00"],
  ["CC(c1nc(C2CN(C(=O)c3cnn(Cc4ccc(C(=O)O)nc4)c3)CC23CN(C(=O)[C@H]2CC2(C)C)C3)no1)n1ccc(C2CCCC2)n1 (stereo partly shown)", "< 5.00"],
  ["O=C(c1cncc(O)n1)N1CC(c2nnc(C(F)(F)c3ccc(Cl)c(Cl)c3)o2)C2(C1)CN(C(=O)[C@H]1CC1(F)F)C2 (stereo partly shown)", "< 5.00"],
  ["CC(c1nc(C2CN(C(=O)c3cnn(Cc4ccc(C(O)C(F)(F)F)cc4)c3)CC23CN(C(=O)[C@H]2CC2(C)C)C3)no1)n1ccc(C2CCCC2)n1 (stereo partly shown)", "5.30 to 6.30"],
  ["O=C(c1cn[nH]c1)N1CC(c2nnc(C(F)(F)c3ccc(Cl)c(Cl)c3)o2)C2(CN(CC3CCCO3)C2)C1 (stereo not shown)", "< 5.00"],
  ["CC(c1nc(C2CN(C(=O)c3cnc(O)cn3)CC23CN(C(=O)C2(C(F)(F)F)CC2)C3)no1)n1ccc(C2CCOCC2)n1 (stereo not shown)", "5.30 to 6.30"],
  ["O=C(c1cnn(Cc2ccc(C(F)(F)F)cc2)c1)N1CC(c2noc(N(Cc3ccc(Cl)c(Cl)c3)CC3CCOCC3)n2)C2(C1)CN(C(=O)C1(C(F)(F)F)CC1)C2 (stereo not shown)", "< 5.00"],
  ["CC(c1nc(C2CN(C(=O)c3cnc(O)c(C(F)(F)F)n3)CC23CN(C(=O)C2(C(F)(F)F)CC2)C3)no1)n1ccc(C2CCOCC2)n1 (stereo not shown)", "5.00 to 5.30"],
  ["O=C(c1cc(O)n[nH]1)N1CC(c2nnc(C(F)(F)c3ccc(Cl)c(Cl)c3)o2)C2(C1)CN(C(=O)[C@H]1CC1(F)F)C2 (stereo partly shown)", "< 5.00"],
  ["O=C(c1cnc(O)cn1)N1CC(c2nnc(C(F)(F)c3ccc(Cl)c(Cl)c3)o2)C2(CN(CC3CCCO3)C2)C1 (stereo not shown)", "< 5.00"]
]}

###

- target: CDK2/Cyclin E1 (Homo sapiens, UniProt P24941)
- Construct: purchased 14-475
- method_notes: ADPGLO (CDK2/E1-37 C), ADP-Glo Luminescent Kinase Assay
- Type: biochemical
- condition_info: 0.18 nM CDK2/Cyclin E1, 100 μM ATP, Histone H1, 37° C.
// reported IC50 per item
observable: IC50

{"columns": ["compound", "observable", "result"],
 "data": [
  ["COc1cc(C(=O)N2CC(c3nnc(C(F)(F)c4ccc(Cl)c(Cl)c4)o3)C3(C2)CN(C(=O)[C@H]2CC2(F)F)C3)[nH]n1 (stereo partly drawn)", "IC50", "> 100 µM"],
  ["CC(c1nc(C2CN(C(=O)c3cnn(Cc4nnn[nH]4)c3)CC23CN(C(=O)[C@H]2CC2(C)C)C3)no1)n1ccc(C2CCCC2)n1 (stereo partly drawn)", "IC50", "0.5 to 5 µM"],
  ["O=C(c1nccnc1O)N1CC(c2nnc(C(F)(F)c3ccc(Cl)c(Cl)c3)o2)C2(CN(CC3CCCO3)C2)C1 (stereo not drawn)", "IC50", "> 100 µM"],
  ["CC(c1nc(C2CN(C(=O)c3cnn(Cc4ccc(C(F)(F)F)cc4C(=O)O)c3)CC23CN(C(=O)C2(C(F)(F)F)CC2)C3)no1)n1ccc(C2(C(F)(F)F)CC2)n1 (stereo not drawn)", "IC50", "> 10 µM"],
  ["O=C(c1cnn(Cc2ccc(C(F)(F)F)cc2)c1)N1CC(c2nnc(C(C(=O)N3CCC(c4nccs4)CC3)c3ccc(C4CCOCC4)cc3)o2)C2(C1)CN(C(=O)C1(C(F)(F)F)CC1)C2 (stereo not drawn)", "IC50", "≤ 0.5 µM"],
  ["O=C(c1cnn(Cc2cccc3[nH]cnc23)c1)N1CC(c2nnc(C(F)(F)c3ccc(Cl)c(Cl)c3)o2)C2(C1)CN(C(=O)C1(C(F)(F)F)CC1)C2 (stereo not drawn)", "IC50", "0.5 to 5 µM"]
]}

###

- target: CDK2/Cyclin E1 (Homo sapiens)
- Construct: purchased 14-475
- method_notes: Caliper Assay (LabChip EZ Reader mobility shift assay), inhibition of CDK2/Cyclin E1 activity
- Assay type: biochemical
- condition_info: 2.5 nM CDK2/Cyclin E1(14-475), 100 μM ATP, 30 min preincubation; read-out: Caliper Assay (CDK2/CCNE1): IC50

{"columns": ["molecule", "IC50"],
 "data": [
  ["CC1(C)C[C@@H]1C(=O)N1CC2(CN(C(=O)c3cnn(Cc4ccccc4)c3)CC2c2nnc(CCC3CCC(F)(F)CC3)o2)C1 (some centres unmarked)", "0.1 to 1 µM"],
  ["CC1(C)C[C@@H]1C(=O)N1CC2(CN(C(=O)c3cncs3)CC2c2nnc(Cc3cccc(C4CCCCO4)n3)o2)C1 (some centres unmarked)", "0.1 to 1 µM"],
  ["CC1(C)C[C@@H]1C(=O)N1CC2(CN(C(=O)c3cnn(Cc4ccccc4)c3)CC2c2nnc(Cc3ccc(Cl)c(Cl)c3)o2)C1 (some centres unmarked) [I-4]", "1 to 10 µM"],
  ["O=C(c1cncs1)N1CC(c2nnc(C(F)(F)c3ccc(Cl)c(Cl)c3)o2)C2(C1)CN(c1cccnn1)C2 (centres unmarked)", "> 10 µM"],
  ["O=C(c1cn[nH]c1C(F)(F)F)N1CC(c2nnc(C(F)(F)c3ccc(Cl)c(Cl)c3)o2)C2(CN(CC3CCCO3)C2)C1 (centres unmarked)", "> 100 µM"]
]}

###

// reported IC50 per item
- target: CDK2/Cyclin E1 (Homo sapiens)
- Construct: purchased 14-475
- method_notes: Caliper Assay (LabChip EZ Reader mobility shift assay), inhibition of CDK2/Cyclin E1 activity
- Assay type: biochemical
- condition_info: 2.5 nM CDK2/Cyclin E1(14-475), 100 μM ATP, 30 min preincubation; read-out: Caliper Assay (CDK2/CCNE1): IC50

{"columns": ["compound", "IC50"],
 "data": [
  ["CC1(C)C[C@@H]1C(=O)N1CC2(CN(C(=O)c3cnn(Cc4ccccc4)c3)CC2c2nc(C(=O)NCc3ccccc3)co2)C1 (some centres unmarked)", "0.1 to 1 µM"],
  ["O=C(c1ccn[nH]1)N1CC(c2nnc(C(F)(F)c3ccc(Cl)c(Cl)c3)o2)C2(C1)CN(C(=O)[C@H]1CC1(F)F)C2 (some centres unmarked)", "> 10 µM"],
  ["CC1(C)C[C@@H]1C(=O)N1CC2(CN(C(=O)c3cnn(Cc4ccccc4)c3)CC2c2noc(COC3CCCC3)n2)C1 (some centres unmarked)", "1 to 10 µM"],
  ["COc1cn[nH]c1C(=O)N1CC(c2nnc(C(F)(F)c3ccc(Cl)c(Cl)c3)o2)C2(C1)CN(C(=O)[C@H]1CC1(F)F)C2 (some centres unmarked)", "1 to 10 µM"],
  ["CC1(C)C[C@@H]1C(=O)N1CC2(CN(C(=O)c3cnc(C#N)s3)CC2c2nnc(C(F)(F)c3ccc(Cl)c(Cl)c3)o2)C1 (some centres unmarked)", "> 10 µM"],
  ["CC1(C)C[C@@H]1C(=O)N1CC2(CN(C(=O)c3cnn(Cc4ccccc4)c3)CC2c2nc(C(=O)NCC3CCCCC3)co2)C1 (some centres unmarked)", "0.01 to 0.1 µM"],
  ["O=C(c1nccnc1O)N1CC(c2nnc(C(F)(F)c3ccc(Cl)c(Cl)c3)o2)C2(C1)CN(C(=O)[C@H]1CC1(F)F)C2 (some centres unmarked)", "> 10 µM"],
  ["O=C(c1cncs1)N1CC(c2nnc(C(F)(F)c3ccc(Cl)c(Cl)c3)o2)C2(CN(CC3CCCO3)C2)C1 (centres unmarked)", "> 10 µM"],
  ["CC1(C)C[C@@H]1C(=O)N1CC2(CN(C(=O)c3cn[nH]c3)CC2c2nnc(C(F)(F)c3ccc(Cl)c(Cl)c3)o2)C1 (some centres unmarked)", "0.1 to 1 µM"],
  ["CC1(C)C[C@@H]1C(=O)N1CC2(CN(C(=O)c3cnn(Cc4ccccc4)c3)CC2c2cc(NC(=O)C3CC3)on2)C1 (some centres unmarked)", "0.1 to 1 µM"],
  ["CC(c1nc(C2CN(C(=O)c3cncs3)CC23CN(C(=O)[C@H]2CC2(C)C)C3)no1)n1ccc(C2CCCC2)n1 (single isomer, unassigned) [I-36 5th]", "≤ 0.01 µM"],
  ["O=C(c1nncs1)N1CC(c2nnc(C(F)(F)c3ccc(Cl)c(Cl)c3)o2)C2(C1)CN(C(=O)[C@H]1CC1(F)F)C2 (some centres unmarked)", "> 10 µM"],
  ["O=C(c1cn[nH]c1C(F)(F)F)N1CC(c2nnc(C(F)(F)c3ccc(Cl)c(Cl)c3)o2)C2(C1)CN(C(=O)[C@H]1CC1(F)F)C2 (some centres unmarked)", "> 10 µM"],
  ["Cc1cc(C)n([C@@H](C)c2nc(C3CN(C(=O)c4cnn(Cc5ccccc5)c4)CC34CN(C(=O)[C@H]3CC3(C)C)C4)no2)n1 (some centres unmarked)", "0.1 to 1 µM"],
  ["CC1(C)C[C@@H]1C(=O)N1CC2(CN(C(=O)c3cncs3)CC2c2nnc(Cc3cc[nH]n3)o2)C1 (some centres unmarked)", "> 10 µM"],
  ["O=C([C@H]1CC1(F)F)N1CC(c2nnc(C(F)(F)c3ccc(Cl)c(Cl)c3)o2)C2(C1)CN(C(=O)[C@H]1CC1(F)F)C2 (some centres unmarked)", "> 10 µM"],
  ["CC1(C)C[C@@H]1C(=O)N1CC2(CN(C(=O)c3cncs3)CC2c2cn(Cc3ccc(C(F)(F)F)cc3)nn2)C1 (some centres unmarked)", "> 10 µM"],
  ["O=C(c1cn[nH]c1)N1CC(c2nnc(C(F)(F)c3ccc(Cl)c(Cl)c3)o2)C2(CN(CC3CCCO3)C2)C1 (centres unmarked)", "> 100 µM"],
  ["O=C(c1noc2cc(Cl)ccc12)N1CC(c2nnc(C(F)(F)c3ccc(Cl)c(Cl)c3)o2)C2(C1)CN(C(=O)[C@H]1CC1(F)F)C2 (some centres unmarked)", "> 10 µM"],
  ["O=C(c1cnccn1)N1CC(c2nnc(C(F)(F)c3ccc(Cl)c(Cl)c3)o2)C2(C1)CN(C(=O)[C@H]1CC1(F)F)C2 (some centres unmarked)", "1 to 10 µM"],
  ["O=C(c1cnc(O)cn1)N1CC(c2nnc(C(F)(F)c3ccc(C4CCOCC4)cc3)o2)C2(C1)CN(C(=O)[C@H]1CC1(F)F)C2 (some centres unmarked)", "1 to 10 µM"],
  ["CC1(C)C[C@@H]1C(=O)N1CC2(CN(C(=O)c3cncs3)CC2c2nnc(C(F)(F)c3ccc(Cl)c(Cl)c3)o2)C1 (some centres unmarked)", "0.1 to 1 µM"],
  ["CC(c1nc(C2CN(C(=O)c3cncs3)CC23CN(C(=O)[C@H]2CC2(C)C)C3)no1)n1ccc(C2CCCC2)n1 (single isomer, unassigned) [I-36 1st]", "0.01 to 0.1 µM"],
  ["O=C(c1[nH]ncc1F)N1CC(c2nnc(C(F)(F)c3ccc(Cl)c(Cl)c3)o2)C2(C1)CN(C(=O)[C@H]1CC1(F)F)C2 (some centres unmarked)", "> 10 µM"],
  ["COc1ccc(COc2cncc(C(=O)N3CC(c4nnc(C(F)(F)c5ccc(Cl)c(Cl)c5)o4)C4(C3)CN(C(=O)[C@H]3CC3(F)F)C4)n2)cc1 (some centres unmarked)", "> 100 µM"],
  ["CC1(C)C[C@@H]1C(=O)N1CC2(CN(C(=O)c3cccnn3)CC2c2nnc(C(F)(F)c3ccc(Cl)c(Cl)c3)o2)C1 (some centres unmarked)", "> 10 µM"]
]}
